# system-tested: APOL1
# condition-summary: ASO, A431, 2 µM
After the bases stand the sugars from the 5' end (letter, count) and the backbone: PS all phosphorothioate, else s phosphorothioate and o phosphodiester by linkage. Methylation of C is not given here. e = 2'-O-(2-methoxyethyl) (MOE); k = constrained ethyl (cEt); d = 2'-deoxy (DNA)
measured-attribute: target mRNA inhibition (%)
# output: bare number, implied unit %

>>> recorded_value("TCAGATGGGTACTTCT (sugars k2 d4 e4 k2 d4, PS)")
78
>>> recorded_value("AAGTATTGCCAGCTAA (sugars kekddddeekkddddd, PS)")
88
>>> recorded_value("TGGTTCAAAAGCAGCA (sugars kkkddddkekekdddd, PS)")
57
>>> recorded_value("ATTCAGAATTTCCACT (sugars kkddddkdkdkddddd, PS)")
79
>>> recorded_value("GTATTTCTTGATGTGG (sugars k3 d4 k3 e1 d5, PS)")
98

Given the entry GTTCTAACTCTTGGGC (sugars kddddkekekeddddd, PS) , what target mRNA inhibition was observed with APOL1?
77

target mRNA inhibition of TTTGTAAGTGCAACCA (sugars kkdddddkekeddddd, PS) on APOL1?
92

So what target mRNA inhibition did CTGAAGATTGGCTCTG (sugars kkddddkekekddddd, PS) get with APOL1?
45

Can you look up target mRNA inhibition on APOL1 for GAAGATTGGCTCTGGC (sugars kekddddeekkddddd, PS) ?
87

Provide value of target mRNA inhibition for this record tested with APOL1: CTTTATACCAGTGTCT (sugars kkkddddkdkdkdddd, PS)
87

* * *

Listed here: items and their measured target mRNA inhibition.
# system-tested: DGAT2
# condition-summary: ASO, HepG2, 20 µM
After the bases stand the sugars from the 5' end (letter, count) and the backbone: PS all phosphorothioate, else s phosphorothioate and o phosphodiester by linkage. Methylation of C is not given here. e = 2'-O-(2-methoxyethyl) (MOE); d = 2'-deoxy (DNA)
Expressed in %, but write only the number.

>>> recorded_value("CCAGGTAAGGCCGTATGCCT (sugars e5 d10 e5, PS)")
43
>>> recorded_value("CCAGTTTCGGACCCACTGTG (sugars e2 d13 e5, PS)")
50
>>> recorded_value("CTTCACCAGGGCCTCCATGT (sugars e5 d10 e5, PS)")
87

Below: the item to evaluate.
// target mRNA inhibition lookup, key: CCAGGGCCTCCATGTACATG (sugars e3 d14 e3, PS)
41

* * *

# system-tested: MALAT1
# condition-summary: ASO, A431, 0.005 µM
After the bases stand the sugars from the 5' end (letter, count) and the backbone: PS all phosphorothioate, else s phosphorothioate and o phosphodiester by linkage. Methylation of C is not given here. k = constrained ethyl (cEt); d = 2'-deoxy (DNA)
Kindly return YES if reported target mRNA inhibition is no lower than 30%; return NO if it is lower.

Below are worked cases with known answers.
>>> qualitative_label("CTTCATGACCCTACTG (sugars k3 d10 k3, PS)")
"YES"
>>> qualitative_label("TGCTAGTCCTCAGGAT (sugars k3 d10 k3, PS)")
"NO"
>>> qualitative_label("GCTGAGGCTTCCCGGC (sugars k3 d10 k3, PS)")
"NO"

Is it the case that TCCTATCTTCACCACG (sugars k3 d10 k3, PS) has target mRNA inhibition reaching or exceeding 30%?
YES

Check this sequence for target mRNA inhibition at or above 30%: CTTTCCATTACGCAAC (sugars k3 d10 k3, PS)
NO

Does the sequence CCCATAACTGATCTGA (sugars k3 d10 k3, PS) have recorded target mRNA inhibition that is 30% or more?
YES

# bool: target mRNA inhibition of CCTACTGAAGAGCATT (sugars k3 d10 k3, PS) >= 30%
NO

State whether the measured target mRNA inhibition reaches 30%, counting equality as reaching it, for CAGATGCAAGTTAAAC (sugars k3 d10 k3, PS)
YES

State whether the measured target mRNA inhibition reaches 30%, counting equality as reaching it, for TTGCCTACCACTCTAA (sugars k3 d10 k3, PS)
NO

* * *

# system-tested: IRF5
# condition-summary: ASO, KARPAS-229, 1.33333 µM
After the bases stand the sugars from the 5' end (letter, count) and the backbone: PS all phosphorothioate, else s phosphorothioate and o phosphodiester by linkage. Methylation of C is not given here. e = 2'-O-(2-methoxyethyl) (MOE); k = constrained ethyl (cEt); d = 2'-deoxy (DNA)
measured-attribute: target mRNA inhibition (%)
Numeric answer only, unit % assumed.

>>> recorded_value("GGGCACAGCGCCAGGTT (sugars kddddddddddkekekd, PS)")
40
>>> recorded_value("TTATTTCTGCTCCAGG (sugars kkkddddddddkdkdk, PS)")
62
>>> recorded_value("CAGGTTCTTGGACTCT (sugars kekdddddddddeekk, PS)")
48
>>> recorded_value("CCAATTTTGCATTCCA (sugars kkddddddddddkeke, PS)")
66

Now consider a different sequence.
Which target mRNA inhibition is reported for this sequence? GGGCACAGCGCAGGTT (sugars kkddddddddkekekk, PS)
32

* * *

# system-tested: MALAT1
# condition-summary: ASO, A431, 0.005 µM
After the bases stand the sugars from the 5' end (letter, count) and the backbone: PS all phosphorothioate, else s phosphorothioate and o phosphodiester by linkage. Methylation of C is not given here. k = constrained ethyl (cEt); d = 2'-deoxy (DNA)
The following sequences are shown together with reported target mRNA inhibition values.
Dear colleague, please return just the value in %, with no unit written.

Quick one: target mRNA inhibition of CTGTAAACCTGTGGTG (sugars k3 d10 k3, PS) ?
15

What target mRNA inhibition value was documented for this sequence, ACTGATCTGACTTTGT (sugars k3 d10 k3, PS) ?
32

target mRNA inhibition lookup needed for TGAAAGAACTAGTGGT (sugars k3 d10 k3, PS) , thanks.
23

Query: target mRNA inhibition; subject: GCCTGCTACCTTCATC (sugars k3 d10 k3, PS)
36

* * *

# system-tested: APOL1
# condition-summary: ASO, A431, 1 µM
After the bases stand the sugars from the 5' end (letter, count) and the backbone: PS all phosphorothioate, else s phosphorothioate and o phosphodiester by linkage. Methylation of C is not given here. e = 2'-O-(2-methoxyethyl) (MOE); k = constrained ethyl (cEt); d = 2'-deoxy (DNA)
I would appreciate it if you labelled entries Satisfied when target mRNA inhibition is 90% or higher, otherwise Not satisfied.

// known answers, use as guide
>>> qualitative_label("AGATGGGTACTTCTGT (sugars k4 d9 k3, PS)")
"Satisfied"
>>> qualitative_label("GCTGGGTCTGTAGTGG (sugars k4 d9 k3, PS)")
"Not satisfied"
>>> qualitative_label("TCCTGGGCGGCGACAA (sugars k4 d9 k3, PS)")
"Not satisfied"
>>> qualitative_label("CAGATGTGTTTAGGCA (sugars k4 d9 k3, PS)")
"Satisfied"
>>> qualitative_label("GCAATGCTGACTTGGC (sugars kkddddkekekkdddd, PS)")
"Not satisfied"

// inclusive: target mRNA inhibition at least 90%? input: CCTTATGCTTACTCCA (sugars k4 d9 k3, PS)
Satisfied

Reported target mRNA inhibition at or above 90%? ATTCTATTGGGCCTCA (sugars k4 d9 k3, PS)
Not satisfied

Assess whether reported target mRNA inhibition for TCCGTCAATATATTCT (sugars k3 d10 k3, PS) sits at 90% or higher.
Satisfied

Decide: target mRNA inhibition of ATTCTCATGGTACAGG (sugars kkkddddkekeddddd, PS) >= 90%?
Not satisfied

Dear colleague, could you confirm whether GCTATGGAAATGCCAA (sugars k4 d9 k3, PS) has target mRNA inhibition at or above 90%?
Not satisfied

Is target mRNA inhibition for AGTTTTGTAAGTGCAA (sugars k3 d4 k3 e1 d5, PS) at or above 90%?
Satisfied

Assess whether reported target mRNA inhibition for GCAAGGCTAAGTTCCG (sugars k4 d9 k3, PS) sits at 90% or higher.
Satisfied

Kindly determine if target mRNA inhibition recorded for GCTTTAAACTCAGGTG (sugars kkddddekekeddddd, PS) is above or exactly 90%.
Not satisfied

Answer whether target mRNA inhibition of TATTTCTTGATGTGGT (sugars kkddddkekekddddd, PS) is greater than or equal to 90%.
Satisfied

Could you please find out whether GTATTTCTTGATGTGG (sugars kekddddeekkddddd, PS) has target mRNA inhibition that meets 90% or exceeds it?
Satisfied

* * *

# system-tested: KRAS
# condition-summary: ASO, A431, 2 µM
After the bases stand the sugars from the 5' end (letter, count) and the backbone: PS all phosphorothioate, else s phosphorothioate and o phosphodiester by linkage. Methylation of C is not given here. e = 2'-O-(2-methoxyethyl) (MOE); k = constrained ethyl (cEt); d = 2'-deoxy (DNA)
# target mRNA inhibition values compiled below
Write the number in % without appending the unit.

Here is how some sequences turned out for target mRNA inhibition.
>>> recorded_value("GTGTTTATGCAATGTT (sugars kkkdddddddddkeke, PS)")
66
>>> recorded_value("TTTTAATGTCACAAGC (sugars k3 d10 k3, PS)")
52
>>> recorded_value("CCAGTGTTAAGAGAAC (sugars k3 d10 k3, PS)")
33
>>> recorded_value("GCATGTAAATATAGCC (sugars k3 d10 k3, PS)")
11
>>> recorded_value("AGTGTGACTCAGTTAA (sugars k3 d10 k3, PS)")
53
>>> recorded_value("GCTGTGAAACTCTCTA (sugars kdddddddddkekeke, PS)")
2
>>> recorded_value("AGATTGTGCTGAGCTT (sugars kkkdddddddddkeke, PS)")
43
>>> recorded_value("CCAGTGTTAAGAGAAC (sugars k3 d9 k3 e1, PS)")
55

Name the reported target mRNA inhibition value associated with the sequence CTTGATTTGTCAGCAG (sugars k3 d9 k3 e1, PS)
46

Tell me the measured target mRNA inhibition of CTAAAACAAATGCTAA (sugars k3 d10 k3, PS) , please.
15

# lookup: target mRNA inhibition of TTTAATGTCACAAGCA (sugars k3 d10 k3, PS)
57
